Target: Oxysterols receptor LXR-beta (Homo sapiens) (UniProt P55055)
Sequence (P55055 whole entry, looked up, the tested form may be a part): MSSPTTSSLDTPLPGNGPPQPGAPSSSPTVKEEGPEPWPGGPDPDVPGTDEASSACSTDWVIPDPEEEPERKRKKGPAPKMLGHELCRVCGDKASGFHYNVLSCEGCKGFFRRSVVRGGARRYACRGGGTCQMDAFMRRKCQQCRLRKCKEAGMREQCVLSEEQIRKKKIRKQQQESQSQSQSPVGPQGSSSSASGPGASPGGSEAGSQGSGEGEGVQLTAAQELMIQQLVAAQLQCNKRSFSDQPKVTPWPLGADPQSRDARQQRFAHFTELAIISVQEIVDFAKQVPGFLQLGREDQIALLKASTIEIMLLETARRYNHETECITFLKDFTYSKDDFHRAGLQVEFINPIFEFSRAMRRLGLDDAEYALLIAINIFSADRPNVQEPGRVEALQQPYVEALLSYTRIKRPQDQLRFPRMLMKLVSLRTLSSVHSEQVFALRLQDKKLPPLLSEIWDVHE
Experiment: LXR agonists, Gal4 luciferase reporter, confirmation, counter-screen for hcDAF-12 agonist project, cell-based, luminescence, HEK293, H. contortus campaign (AID 743027)
Conditions: HEK293 Gal4-LXR tk-luc reporter, 24 h, at 6.8 µM, active compounds read high, normalized: DMSO 0%, positive control 100%
The list shows a part of the results.
recordedMetric: activation (%)
Please give a number only; it is taken to be in %.

(Q) What activation value was documented for this compound, Cc1ccccc1Nc1nnc(SCC(=O)c2cc3ccccc3o2)s1 ?
(A) -0.11

(Q) Could you do the same for NS(=O)(=O)c1ccc2nc(NC(=O)CS(=O)(=O)c3ccc(F)cc3)sc2c1 , please?
(A) -0.28

(Q) And then CNc1nc(Nc2ccc(C)c(Cl)c2)nc(N)c1[N+](=O)[O-] , what is it?
(A) 0.77

(Q) // next record C/C(=N/NC(=S)Nc1ccccc1)c1ccc2c(c1)OCO2
(A) 0.01

(Q) Further, for O=C(CSC(=S)N1CCOCC1)c1ccccc1 ?
(A) 1

(Q) Also check Clc1ccc(-c2cc(-c3ccccn3)on2)c(Cl)c1
(A) 1.95
